Entry source: patent US20220073536A1

Please provide measured IC50 for the entries that follow.
system: cultured human mast cells (CHMC); assay: CHMC low cell density ionomycin activation: tryptase assay; assay type: cell-based; details: Homo sapiens, Mast cell, low cell density CHMC, tryptase release, 3 pt, read-out: LD Tryptase, CHMC, Iono, 3 pt

Prompt: Could you tell me which IC50 is on file for COCCn1ncc2ccc(Nc3ncc(F)c(Nc4ccc5c(c4)NC(=O)C(C)(C)O5)n3)cc21 [Compound 777] ?
Response: > 10 µM

Prompt: Could you tell me which IC50 is on file for Cc1nc2ccc(Nc3ncc(F)c(Nc4ccc5c(n4)NC(=O)C(C)(C)O5)n3)cc2[nH]1 [Compound 845] ?
Response: < 10 µM

Prompt: Could you tell me which IC50 is on file for COc1ccc(Nc2nc(Nc3ccc4c(cnn4CCCNS(C)(=O)=O)c3)ncc2F)cc1Cl [Compound 832] ?
Response: > 10 µM

Prompt: Could you tell me which IC50 is on file for COCCn1ncc2cc(Nc3ncc(F)c(Nc4ccc5c(c4)NC(=O)C(C)(C)O5)n3)ccc21 [Compound 773] ?
Response: > 10 µM

Prompt: Could you tell me which IC50 is on file for Cc1nc2ccc(Nc3ncc(F)c(Nc4ccc5c(c4)NC(=O)[C@H](C)O5)n3)cc2[nH]1 [Compound 811] ?
Response: > 10 µM

Prompt: Could you tell me which IC50 is on file for C[C@H]1Oc2ccc(Nc3nc(Nc4cccc(-c5cocn5)c4)ncc3F)cc2NC1=O [Compound 250] ?
Response: < 10 µM

Prompt: Could you tell me which IC50 is on file for CN1C(=O)COc2ccc(Nc3nc(Nc4ccc(-c5cnco5)cc4)ncc3F)cc21 [Compound 231] ?
Response: > 10 µM

Prompt: Could you tell me which IC50 is on file for O=C1COc2ccc(Nc3nc(Nc4ccc(-c5cnco5)cc4)ncc3F)cc2N1 [Compound 224] ?
Response: > 10 µM
